- protocol notes: Displacement of [3H]colchicine from microtubule associated protein rich tubulin at 5 uM
readout name: inhibition (%)
Report the figure in % without appending any unit label.

COc1cc(C(=O)n2c(C)cc3c(O)c(OC)ccc32)cc(OC)c1OC | 97
COc1cc(C(=O)n2c(C)cc3cc(N(C)C)ccc32)cc(OC)c1OC | 89
COc1ccc2c(c1)CCN2C(=O)c1cc(OC)c(OC)c(OC)c1 | 55
COc1ccc(/C=C\c2cc(OC)c(OC)c(OC)c2)cc1O | 93

Query compound follows.
Please look up its inhibition: COc1cc(C(=O)n2ccc3c(N)c(OC)ccc32)cc(OC)c1OC 93

Sourced from ChEMBL document CHEMBL1155109
